# Test details: physchem
# Type: physicochemical
# Recorded conditions: titration method
Metric name: pKa
Keep it simple and answer with nothing but the number.

Find the recorded pKa belonging to N[C@@H](C(=O)O)[C@H](O)c1ccc(O)c(O)c1 [L-threo-DOPS] and report it.
7.88
